- assayedTarget: Monoamine oxidase (Mus musculus, UniProt Q8BW75+Q64133)
- testName: Inhibitory activity of Monoamine oxidase at mouse forebrain homogenate by displacing [14C]5-HT
- Assay type: tissue-based
assayReadout: ED50

CC=C=CCN(C)Cc1ccccc1.O=C(O)C(=O)O (stereo in doubt; (R)(-)2) ... > 36 µM/kg
C=C=CCN(C)Cc1ccccc1 ... > 48 µM/kg

# ---- query compound ----
Query: Return reported ED50; argument: C=C=C(CN)Cc1ccccc1
Response: > 26 µM/kg

---

- assayedTarget: Monoamine oxidase (Mus musculus, UniProt Q8BW75+Q64133)
- testName: Inhibitory activity of Monoamine oxidase at mouse forebrain homogenate by displacing [14C]PEA
- Type: tissue-based
// classify: if (ED50 < 10 µM/kg) criterion met else criterion not met

CC=C=CCN(C)Cc1ccccc1.O=C(O)C(=O)O (stereo in doubt; (S)(+)2) ... criterion not met

Here's the next entry for you.
Query: # TODO verify ED50 < 10 µM/kg strictly for this molecule: C=C=C(CN)Cc1ccc(OC)cc1
Response: criterion not met

---

Reported ED50 is given for each of the following compounds.
- assayedTarget: Monoamine oxidase (Mus musculus, UniProt Q8BW75+Q64133)
- testName: Inhibitory activity of Monoamine oxidase at mouse forebrain homogenate by displacing [14C]PEA
- Type: tissue-based
Just the number please, in µM/kg, no unit attached.

Recorded ED50, per entry:
C#CCN(C)[C@H](C)Cc1ccccc1 ... 2
CC=C=CCN(C)Cc1ccccc1 ... 36

# ---- query compound ----
Query: Return reported ED50; argument: C=C=CCN(C)CCCOc1ccc(Cl)cc1Cl
Response: 33

---

- assayedTarget: Monoamine oxidase (Mus musculus, UniProt Q8BW75+Q64133)
- testName: Inhibitory activity of Monoamine oxidase at mouse forebrain homogenate by displacing [14C]PEA
- Type: tissue-based
Reported ED50 is given for each of the following molecules.

Query: Return reported ED50; argument: C=C=CCN(C)C(C)Cc1ccccc1 (configuration not stated)
Response: 52 µM/kg

Query: Return reported ED50; argument: C=C=C(Cc1ccccc1)CN(C)C
Response: 54 µM/kg

Query: Return reported ED50; argument: C=C=CCN(C)Cc1ccccc1
Response: 17 µM/kg

Query: Return reported ED50; argument: C=C=CCN1CCc2ccccc2C1
Response: > 90 µM/kg

Query: Return reported ED50; argument: C=C=C(CN)Cc1ccc(Cl)cc1
Response: 7 µM/kg

Query: Return reported ED50; argument: C=C=CCN(C)C1CCc2ccccc21 (configuration not stated)
Response: 1.7 µM/kg

Query: Return reported ED50; argument: C=C=C(CN)Cc1ccccc1
Response: 12 µM/kg

Query: Return reported ED50; argument: C=C=C(CNC)Cc1ccccc1
Response: 11 µM/kg

Query: Return reported ED50; argument: C=C=C(CN)Cc1ccc(C)cc1
Response: 23 µM/kg

Query: Return reported ED50; argument: CC=C=CCN(C)Cc1ccccc1.O=C(O)C(=O)O (stereo in doubt; (R)(-)2)
Response: 20 µM/kg

Query: Return reported ED50; argument: C=C=C(CN)c1ccccc1
Response: 8 µM/kg

Query: Return reported ED50; argument: C=C=CCNCc1ccccc1
Response: 6 µM/kg
